biological target: (recombinant) catalytic domain of human Bub1 (amino acids 704-1085) (Homo sapiens (Human)); experiment: Bub1 kinase assay (TR-FRET); conditions: ATP 10 μM final, peptide substrate 1 μM final, 60 min at 22° C., read-out: Biological Assay: Bub1 kinase assay median IC50
Sequence (O43683 704-1085): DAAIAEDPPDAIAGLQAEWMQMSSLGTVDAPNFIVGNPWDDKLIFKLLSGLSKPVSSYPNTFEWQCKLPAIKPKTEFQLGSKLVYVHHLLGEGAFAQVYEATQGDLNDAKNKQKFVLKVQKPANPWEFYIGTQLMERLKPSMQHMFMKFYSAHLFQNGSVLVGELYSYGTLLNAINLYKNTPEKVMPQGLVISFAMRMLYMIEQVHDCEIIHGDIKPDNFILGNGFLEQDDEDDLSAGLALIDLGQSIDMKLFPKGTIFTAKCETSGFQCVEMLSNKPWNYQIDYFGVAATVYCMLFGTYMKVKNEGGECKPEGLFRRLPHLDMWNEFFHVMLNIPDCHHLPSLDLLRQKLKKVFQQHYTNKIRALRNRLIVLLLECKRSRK
pIC50: −log10 of the molar value.
Measure: pIC50

Worked examples, 5 molecules total:
O=C(Nc1cc(-c2[nH]c3c(c2Nc2ccccc2)C(=O)CCC3)ccn1)c1ccccc1F [Example 264] :: 7.86
CC1(C)CC(=O)c2c([nH]c(-c3ccncc3)c2Nc2cccc(-c3ccccc3)n2)C1 [Example 423] :: 7.57
Cc1cc(Nc2c(-c3ccncc3)[nH]c3c2C(=O)CC(C)(C)C3)ccc1F [Example 81] :: 7.35
O=C1CC2(CC2)Cc2[nH]c(-c3ccnc(NC(=O)[C@H]4C[C@@H]4F)c3)c(Nc3ccccc3)c21 (relative stereo) [Example 466] :: 8.30
O=C1CCCc2[nH]c(-c3ccncc3)c(Nc3ccc(F)c(F)c3)c21 [Example 38] :: 8.10

[I] CC1(C)CC(=O)c2c([nH]c(-c3cc[n+](CC(F)(F)F)cc3)c2Nc2ccccc2)C1 [Example 190]
[II] CC1(C)CC(=O)c2c([nH]c(-c3ccncc3)c2Nc2ccccc2CO)C1 [Example 426]
Larger number for pIC50: I , or II ? Kindly state the label of the option you pick.
II

----------
biological target: (recombinant) catalytic domain of human Bub1 (amino acids 704-1085) (Homo sapiens (Human)); test: Bub1 kinase assay (TR-FRET); details: ATP 10 μM final, peptide substrate 1 μM final, 60 min at 22° C., read-out: Biological Assay: Bub1 kinase assay median IC50
pIC50: −log10 of the molar value.
Measure: pIC50

[a] O=C(CC1CC1)Nc1cc(-c2[nH]c3c(c2Nc2ccccc2)C(=O)CCC3)ccn1 [Example 231]
[b] O=C1CCCc2[nH]c(-c3ccnc(NC(=S)NC4CCCC4)c3)c(Nc3ccccc3)c21 [Example 397]
Select the item whose pIC50 value is smaller, choosing between a and b . Kindly state the label of the option you pick.
b

[A] Cc1cnc(COCC(=O)Nc2cc(-c3[nH]c4c(c3Nc3ccccc3)C(=O)CCC4)ccn2)o1 [Example 355]
[B] CSCCNC(=O)Nc1cc(-c2[nH]c3c(c2Nc2ccccc2)C(=O)CCC3)ccn1 [Example 389]
Select the item whose pIC50 value is smaller, choosing between A and B . Kindly state the label of the option you pick.
B
(B: 7.41, A: 8.19)

----------
molecular target: (recombinant) catalytic domain of human Bub1 (amino acids 704-1085) (Homo sapiens (Human)); assay: Bub1 kinase assay (TR-FRET); settings: ATP 10 μM final, peptide substrate 1 μM final, 60 min at 22° C., read-out: Biological Assay: Bub1 kinase assay median IC50
Measure: IC50 (nM)

Cn1cc(NC(=O)Nc2cc(-c3[nH]c4c(c3Nc3ccccc3)C(=O)CCC4)ccn2)cn1 :: 3.96
O=C1CCCc2[nH]c(-c3ccncc3)c(Nc3ccccc3)c21 :: 12.1
CC1(C)CC(=O)c2c([nH]c(-c3ccncc3)c2Nc2ccccc2C(C)(C)O)C1 :: 39.1
CCCC(=O)Nc1cc(-c2[nH]c3c(c2Nc2ccccc2)C(=O)CCC3)ccn1 :: 20.4
CN[C@@H](C)C(=O)Nc1cc(-c2[nH]c3c(c2Nc2ccccc2)C(=O)CCC3)ccn1 :: 174

[I] O=C(COc1ccon1)Nc1cc(-c2[nH]c3c(c2Nc2ccccc2)C(=O)CCC3)ccn1
[II] COC(C)(C)C(=O)Nc1cc(-c2[nH]c3c(c2Nc2ccccc2)C(=O)CCC3)ccn1
[III] CCC(=O)Nc1cc(-c2[nH]c3c(c2Nc2ccccc2)C(=O)CC(C)(C)C3)ccn1
[IV] COCCNC(=O)Nc1cc(-c2[nH]c3c(c2Nc2ccccc2)C(=O)CCC3)ccn1
Please list the entries, largest IC50 first. Write the labels in rank order as requested.
II, IV, III, I
(II: 608 nM, IV: 69.1 nM, III: 17.4 nM, I: 10.2 nM)
